Data provenance: patent US20230399325A1

Assay: Pharmacokinetic study of Compound A succinate in cynomolgus monkeys
Format: in vivo
Details: cynomolgus monkey, plasma, po; i.g. 24 mg/kg, male cynomolgus monkeys
METRIC: AUC(0-inf) (ng·h/mL)
Use ng·h/mL as the unit, but write only the number.

AUC(0-inf) in this record for CCN1CCN(Cc2ccc(Nc3ncc(F)c(-c4sc(NC5CCCC5)nc4C)n3)nc2)CC1.O=C(O)CCC(=O)O [Compound A succinate] : 7420

---

Assay: Pharmacokinetic study of Compound A succinate in cynomolgus monkeys
Assay type: in vivo
Conditions: cynomolgus monkey, plasma, iv; i.v. 2 mg/kg, female cynomolgus monkeys
METRIC: AUC(0-inf)

Noted for CCN1CCN(Cc2ccc(Nc3ncc(F)c(-c4sc(NC5CCCC5)nc4C)n3)nc2)CC1.O=C(O)CCC(=O)O [Compound A succinate] : its AUC(0-inf) reads 1.19 µg·h/mL
